experimental.target: AAK1 (Homo sapiens, UniProt Q2M2I8)
Construct: to maximize the representation of endogenous proteins; endogenous in cells
Sequence (Q2M2I8 whole entry): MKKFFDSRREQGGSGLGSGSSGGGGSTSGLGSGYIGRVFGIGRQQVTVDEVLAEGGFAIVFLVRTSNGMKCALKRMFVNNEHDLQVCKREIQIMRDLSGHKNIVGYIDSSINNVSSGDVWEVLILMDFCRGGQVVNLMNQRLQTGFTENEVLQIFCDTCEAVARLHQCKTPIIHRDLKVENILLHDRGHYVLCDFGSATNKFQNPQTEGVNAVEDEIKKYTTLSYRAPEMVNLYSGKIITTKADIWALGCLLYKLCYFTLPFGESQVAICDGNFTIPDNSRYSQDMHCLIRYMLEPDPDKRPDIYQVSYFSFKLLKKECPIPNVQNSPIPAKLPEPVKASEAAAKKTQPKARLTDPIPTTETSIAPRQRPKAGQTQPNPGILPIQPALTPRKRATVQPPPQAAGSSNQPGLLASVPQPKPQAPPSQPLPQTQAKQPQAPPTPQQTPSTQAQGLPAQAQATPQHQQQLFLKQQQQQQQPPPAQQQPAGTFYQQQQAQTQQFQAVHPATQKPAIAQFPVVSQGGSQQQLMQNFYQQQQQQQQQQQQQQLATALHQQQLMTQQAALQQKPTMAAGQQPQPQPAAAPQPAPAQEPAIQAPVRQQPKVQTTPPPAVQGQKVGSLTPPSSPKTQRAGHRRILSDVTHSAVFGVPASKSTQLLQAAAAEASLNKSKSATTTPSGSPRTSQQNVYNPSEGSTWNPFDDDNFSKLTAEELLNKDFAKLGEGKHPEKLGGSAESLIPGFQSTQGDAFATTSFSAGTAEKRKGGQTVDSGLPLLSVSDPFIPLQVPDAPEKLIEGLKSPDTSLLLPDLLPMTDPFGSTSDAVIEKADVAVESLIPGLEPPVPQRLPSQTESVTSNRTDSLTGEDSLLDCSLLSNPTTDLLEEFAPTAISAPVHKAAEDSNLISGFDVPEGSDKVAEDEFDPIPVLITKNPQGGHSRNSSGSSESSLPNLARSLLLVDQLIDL
measurement.description: Kinobeads two-dose competition binding: AAK1;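 note: kinobeads competition pulldown from cell lysate, compound preincubated 45 min at 4 °C, bead-bound protein measured by label-free mass spectrometry against DMSO vehicle control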
condition.notes: sheet CATDS matrix 2; Gene Name AAK1
Measured CATDS values are reported for all entries that follow.
Enter a number only.

Worked cases, CATDS given:
- CCS(=O)(=O)N1CC(CC#N)(n2cc(-c3ncnc4[nH]ccc34)cn2)C1 [Baricitinib, reference compound]: 0.1267
- O=c1[nH]c2cc(Nc3ccc(F)cc3F)ccc2n1CC1CCCCC1: 0
- Cc1ccc(NC(=O)Nc2ccccc2F)cc1-c1ccc(C(=O)Nc2ccncc2)cc1: 0.01281
- Cc1c(Cn2ccn3c(=O)cc(N4CCOCC4)nc23)cccc1C(F)(F)F [GSK2289044B]: 0
- CC(=O)N1CCN(c2ccc(Nc3nccc(-c4sc(C(C)C)nc4-c4cccc(NS(=O)(=O)c5ccccc5)c4)n3)cn2)CC1 [GSK1645872A]: 0
- CC1=C(C(=O)Nc2ccc3[nH]ncc3c2)C(c2ccc(F)cc2)NC(=O)N1 (stereo not shown) [GSK180736A]: 0

Please turn your attention to the following entry.
## Task Which CATDS value is on record for COc1cc2c(cc1Nc1nc(Nc3ccsc3C(N)=O)c3cc[nH]c3n1)N(C(=O)CN(C)C)CCC2(C)C [GSK2163632A] ?
## Result 0
